- TARGET_OF_ASSAY: human ALK2 R206H (Homo sapiens, UniProt Q04771, R206H)
- Construct: expressed in transfected cells; host or cells: HEK293 (ATCC CRL1573), lentivirus transduction, blasticidin selection
- Sequence (Q04771 21-509 R206H): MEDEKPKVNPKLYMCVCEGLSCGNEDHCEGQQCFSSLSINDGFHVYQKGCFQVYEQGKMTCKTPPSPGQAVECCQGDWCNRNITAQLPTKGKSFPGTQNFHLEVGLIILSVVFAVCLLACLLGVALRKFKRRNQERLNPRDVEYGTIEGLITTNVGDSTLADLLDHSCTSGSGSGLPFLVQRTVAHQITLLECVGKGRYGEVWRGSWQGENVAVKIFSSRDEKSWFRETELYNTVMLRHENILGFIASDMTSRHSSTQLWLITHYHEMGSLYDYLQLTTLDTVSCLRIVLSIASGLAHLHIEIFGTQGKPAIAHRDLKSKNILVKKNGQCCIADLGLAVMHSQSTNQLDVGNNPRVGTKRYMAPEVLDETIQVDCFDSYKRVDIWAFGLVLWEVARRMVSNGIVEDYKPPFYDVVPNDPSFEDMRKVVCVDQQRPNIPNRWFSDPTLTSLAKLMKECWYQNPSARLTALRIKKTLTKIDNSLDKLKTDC
- TEST_METHOD_NOTES: Cell-based ALK2-R206H cell activity assay (Smad1-Ser463/Ser465 phosphorylation by AlphaLISA in HEK293-ALK2-R206H cells)
- PARTICULARS: read-out: Cell Line (Cell Assay IC50)
pIC50: −log10 of the molar value.
Reported pIC50 values for the following molecules.

Known results for molecules:
> print(dat)
                                   molecule  property        result
1  CCOC(=O)N1CCN(c2ccnn3cc(-c4ccc([C@]5(F)CCCNC5)cc4)cc23)CC1     pIC50        > 7.00
2  CC(C)N[C@@H](CO)c1ccc(-c2cc3c(N4CCN(C(=O)OC5COC5)CC4)ccnn3c2)cc1     pIC50        > 7.00
3  O=C(C1CC1)N1CCN(c2ccnn3cc(-c4ccc(C5CCCN5)cn4)cc23)CC1 (stereo not drawn) [Compound 454]     pIC50  6.30 to 7.00
4  CC(C)N1CCC[C@H]1c1ccc(-c2cc3c(N4CCN(C(=O)C5CC5)CC4)ccnn3c2)cn1     pIC50        > 7.00
5  CCN1CCN(c2ccc(-c3cc4c(N5CCN(C(=O)[C@H]6CC[C@H](O)CC6)CC5)ccnn4c3)cc2)CC1     pIC50        > 7.00
6  CO[C@@]1(c2ccc(-c3cc4c(N5CCN(C(=O)C6CC6)CC5)ccnn4c3)nc2)CCCN(C(C)C)C1     pIC50        > 7.00
7  CCN1CCN(c2ccc(-c3cc4c(N5CCN(C(=O)C6CC6)CC5)ccnn4c3)cc2)C[C@@H]1C     pIC50        > 7.00
8  CCN1CCN(c2ccc(-c3cc4c(N5CCN(C(=O)N6CC(O)C6)CC5)ccnn4c3)cc2)CC1     pIC50  6.30 to 7.00

## Task Sample COC[C@H](C)N1CCC(OC)(c2ccc(-c3cc4c(N5CCN(C(=O)NC(C)C)CC5)ccnn4c3)nc2)CC1 — what was its pIC50?
## Result > 7.00

## Task So what does the record say about pIC50 for CC(C)N1CC[C@@H](OC(F)F)[C@H](c2ccc(-c3cc4c(N5CCN(C(=O)C6CC6)CC5)ccnn4c3)cc2)C1 ?
## Result > 7.00

## Task Request the reported pIC50 associated with CCOC1(c2ccc(-c3cc4c(N5CCN(C(=O)NC(C)C)CC5)ccnn4c3)nc2)CCN(C(C)CF)CC1 (stereo not drawn)
## Result > 7.00

## Task Query: pIC50; subject: CCNC(=O)N1CCN(c2ccnn3cc(-c4ccc(N5CC6(C5)CN(C(C)C)C6)cc4)cc23)CC1
## Result 6.30 to 7.00

## Task # input molecule: CCNC(=O)N1CCN(c2ccnn3cc(-c4ccc([C@@H]5CCCN(C(C)C)C5)cc4)cc23)CC1 ; wanted: its pIC50
## Result > 7.00

## Task For the molecule shown here, CCN1CCC(c2ccc(-c3cc4c(N5CCN(C(=O)C6CC(O)(C(F)(F)F)C6)CC5)ccnn4c3)cc2)CC1 (stereo not drawn) , give the reported pIC50.
## Result > 7.00

## Task Can you share its pIC50? I mean this molecule: CO[C@@]1(c2ccc(-c3cc4c(N5CCN(C(=O)NC(C)C)CC5)ccnn4c3)cc2)CCN(C(C)C)C1
## Result > 7.00
